Tested on: rat hepatocytes
assay.explanation: In vitro metabolic stability in rat hepatocytes (calculated Fmax)
Format: in vitro ADME, Han Wistar rats
measurement.setup: 1 μM, calculated maximal oral bioavailability
So basically: Rat hepatocyte Fmax at 50% or higher? That is TRUE. Lower than 50%? That is FALSE.

[
  {
    "compound": "Cc1cnc(-c2cc(O[C@H]3CCOC3)cc(C(=O)N[C@H](C)c3cnc(C(F)(F)F)nc3)c2)s1",
    "discrete.label": "TRUE"
  },
  {
    "compound": "Cc1cnc(-c2cc(OC(C)C(C)O)cc(C(=O)N[C@H](C)c3cnc(C(F)(F)F)nc3)c2)s1 (single isomer, unassigned) [Example 163]",
    "discrete.label": "TRUE"
  },
  {
    "compound": "Cc1cnc(-c2cc(OC(C)C(C)O)cc(C(=O)N[C@H](C)c3cnc(C(F)(F)F)nc3)c2)s1 (single isomer, unassigned) [Example 340]",
    "discrete.label": "TRUE"
  }
]

Q: Check if Rat hepatocyte Fmax >= 50% (inclusive). Item: Cc1cnc(-c2cc(OC(C)C(C)O)cc(C(=O)N[C@H](C)c3ccc(C(F)(F)F)nn3)c2)s1 (single isomer, unassigned)
Ans: FALSE

Q: Check if Rat hepatocyte Fmax >= 50% (inclusive). Item: "Cc1cnc(-c2cc(O[C@@H]3CCOC3)cc(C(=O)N[C@H](C)c3cnc(C(F)(F)F)nc3)c2)s1"
Ans: TRUE

Q: Check if Rat hepatocyte Fmax >= 50% (inclusive). Item: Cc1cnc(-c2cc(OC(C)C(C)O)cc(C(=O)N[C@H](C)c3cnc(C(F)(F)F)nc3)c2)s1 (single isomer, unassigned) [Example 339]
Ans: TRUE

---

assay.target: human P2X3 receptor (Homo sapiens (Human), UniProt P56373)
Sequence (P56373 whole entry): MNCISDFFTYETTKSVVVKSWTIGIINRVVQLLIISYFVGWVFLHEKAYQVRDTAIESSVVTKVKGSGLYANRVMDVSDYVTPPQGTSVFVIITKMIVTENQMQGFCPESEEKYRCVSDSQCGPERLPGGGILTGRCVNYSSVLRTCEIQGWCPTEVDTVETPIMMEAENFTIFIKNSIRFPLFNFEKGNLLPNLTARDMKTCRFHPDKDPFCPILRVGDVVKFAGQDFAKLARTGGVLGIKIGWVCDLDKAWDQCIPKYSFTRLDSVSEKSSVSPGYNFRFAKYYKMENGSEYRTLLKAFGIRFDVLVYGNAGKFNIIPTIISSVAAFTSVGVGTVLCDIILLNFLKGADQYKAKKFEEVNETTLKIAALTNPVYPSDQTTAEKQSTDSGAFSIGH
assay.explanation: Intracellular calcium measurement (FLIPR, Fluo-4) of antagonist activity at human P2X3 receptor
Type: cell-based
measurement.setup: human P2X3, FLIPR Fluo-4 calcium, agonist α,β-Me-ATP at EC80; read-out: hP2X3 IC50
measurement.label: IC50 (nM)
One number for each entry, in nM.

Q: What IC50 value was documented for this compound, "CCc1cnc(-c2cc(OC[C@H]3CCCO3)cc(C(=O)N[C@H](C)c3cnc(C)cn3)c2)s1" ?
Ans: 6
